assay: Ratio of drug uptake in diet-induced obese C57Bl/6 mouse liver to serum at 30 mg/kg, po qd for 4 weeks measured 6 hrs post last dose; type: ADME, organism-based

>  <mol>
CCCCCCC(=O)c1cc(-c2ccc(CC(=O)O)cc2)c2nccn2c1

>  <Kp at 6 h>
10

$$$$

* * *

experiment: Drug uptake in diet-induced obese C57Bl/6 mouse liver at 30 mg/kg, po qd for 4 weeks measured 6 hrs post last dose; format: ADME, organism-based; conditions: read-out: Drug uptake

>  <mol>
CCCCCCC(=O)c1cc(-c2ccc(CC(=O)O)cc2)c2nccn2c1

>  <concentration at 6 h>
6580 ng/g

$$$$

* * *

assay: Drug uptake in diet-induced obese C57Bl/6 mouse liver at 0.1 mg/kg, po qd for 4 weeks measured 6 hrs post last dose; assay type: ADME, organism-based; conditions: read-out: Drug uptake
test readout: concentration at 6 h (ng/g)

>  <mol>
CCCCCCC(=O)N1CCc2c(c(-c3ccc(C(C)(C)C(=O)O)cc3)nn2C)C1

>  <recorded result>
26500

$$$$

Data provenance is ChEMBL document CHEMBL4477201.
